Entry source: the supplement of paper PMC11732987

# Tested System: UniProt Q9UGI0
# Sequence (whole entry): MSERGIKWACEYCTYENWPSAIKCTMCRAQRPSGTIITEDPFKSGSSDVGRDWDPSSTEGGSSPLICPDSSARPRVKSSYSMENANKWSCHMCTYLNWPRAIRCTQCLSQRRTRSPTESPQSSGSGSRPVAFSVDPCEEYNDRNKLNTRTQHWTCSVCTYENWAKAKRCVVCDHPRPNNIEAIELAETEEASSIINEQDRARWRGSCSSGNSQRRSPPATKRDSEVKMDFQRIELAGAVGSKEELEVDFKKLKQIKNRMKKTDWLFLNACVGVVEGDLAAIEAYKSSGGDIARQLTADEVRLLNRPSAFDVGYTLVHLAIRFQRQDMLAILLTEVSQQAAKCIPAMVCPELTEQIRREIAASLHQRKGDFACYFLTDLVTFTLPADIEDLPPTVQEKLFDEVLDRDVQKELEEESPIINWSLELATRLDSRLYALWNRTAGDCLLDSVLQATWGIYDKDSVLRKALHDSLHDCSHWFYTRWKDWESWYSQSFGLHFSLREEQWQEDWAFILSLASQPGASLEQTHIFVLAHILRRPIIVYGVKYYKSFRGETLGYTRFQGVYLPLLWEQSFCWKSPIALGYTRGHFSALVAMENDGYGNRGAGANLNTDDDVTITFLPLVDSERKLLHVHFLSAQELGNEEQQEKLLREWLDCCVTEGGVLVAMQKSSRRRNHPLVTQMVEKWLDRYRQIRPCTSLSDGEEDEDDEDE
# Test Details: log2 ratio of Biotin-Ahx-Ub-VS probe labelling (fragment/DMSO); higher = less target engagement (more negative = stronger competition), active = hit call of the paper (q ≤ 0.05, log2 ratio ≤ -1)
# Assay Setup: compound concentration: 200 uM; treatment time: 3 h
Value Kind: log2 ratio of Biotin-Ahx-Ub-VS probe labelling
Give the value as a plain number.

The examples below pair each entry with its known result.
Compound: O=C(CCl)N1CCOC(c2cccc(F)c2)C1 (configuration not stated)
Observed Result: -1.44
//
Compound: O=C(CCl)NCCc1ccc2c(c1)OCCO2
Observed Result: -0.256
//
Compound: O=C(CCl)NCCc1cccc2ccccc12
Observed Result: 0.238
//
Compound: Cc1conc1C1CN(C(=O)CCl)C1
Observed Result: -0.885
//
Compound: Cl.O=C(CCl)N1CCn2cncc2C1
Observed Result: -0.182
//
Compound: Cc1ccc(N(CCC#N)C(=O)CCl)cc1C
Observed Result: -1.49

Here is the next item to consider.
Entry CC(NC(=O)CCl)c1cnn(C2CC2)c1 (configuration not stated) ; log2 ratio of Biotin-Ahx-Ub-VS probe labelling = -0.311

----------
# Tested System: OTUD5 (UniProt Q96G74)
# Sequence (Q96G74 whole entry, the tested form may be a part): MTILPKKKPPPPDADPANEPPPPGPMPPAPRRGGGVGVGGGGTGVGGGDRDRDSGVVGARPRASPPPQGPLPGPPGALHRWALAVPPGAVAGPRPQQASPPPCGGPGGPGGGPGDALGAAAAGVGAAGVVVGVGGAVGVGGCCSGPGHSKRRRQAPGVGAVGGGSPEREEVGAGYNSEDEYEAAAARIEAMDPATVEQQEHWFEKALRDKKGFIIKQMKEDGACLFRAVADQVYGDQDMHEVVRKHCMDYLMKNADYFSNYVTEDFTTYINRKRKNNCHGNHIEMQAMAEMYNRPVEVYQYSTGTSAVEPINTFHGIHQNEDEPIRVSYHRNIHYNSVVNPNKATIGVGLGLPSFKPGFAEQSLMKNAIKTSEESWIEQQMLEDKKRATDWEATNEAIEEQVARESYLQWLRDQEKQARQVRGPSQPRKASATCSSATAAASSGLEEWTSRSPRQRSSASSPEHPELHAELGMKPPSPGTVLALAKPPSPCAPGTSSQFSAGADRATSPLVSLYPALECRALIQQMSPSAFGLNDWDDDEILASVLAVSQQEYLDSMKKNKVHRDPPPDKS
# Test Details: log2 ratio of Biotin-Ahx-Ub-VS probe labelling (fragment/DMSO); higher = less target engagement (more negative = stronger competition), active = hit call of the paper (q ≤ 0.05, log2 ratio ≤ -1)
# Assay Setup: compound concentration: 200 uM; treatment time: 3 h
Where log2 ratio of Biotin-Ahx-Ub-VS probe labelling equals or exceeds -0.5, the correct label is Criterion met; where it does not, the label is Criterion not met.

Example cases with answers are listed next.
Compound: CCN1C(=O)C2CN(C(=O)CCl)CCN2C1=O (configuration not stated)
Assigned Category: Criterion met

Compound: NC(=O)C1CCCN(C(=O)CCl)C1 (configuration not stated)
Assigned Category: Criterion met

Compound: CC(NC(=O)CCl)c1csc(-c2ccccc2)n1.Cl (configuration not stated)
Assigned Category: Criterion not met

Compound: Cc1ccc(CN(C)C(=O)CCl)o1
Assigned Category: Criterion met

Compound: O=C(CCl)N1CCCCCC1c1ncon1 (configuration not stated)
Assigned Category: Criterion not met

Read the next record carefully.
Please check the record O=C(CCl)NC(Cn1ccccc1=O)c1ccccc1 (configuration not stated) and state if its log2 ratio of Biotin-Ahx-Ub-VS probe labelling is at or above -0.5. Criterion met

----------
# Tested System: OTUD5 (UniProt Q96G74)
# Test Details: log2 ratio of Biotin-Ahx-Ub-VS probe labelling (fragment/DMSO); higher = less target engagement (more negative = stronger competition), active = hit call of the paper (q ≤ 0.05, log2 ratio ≤ -1)
# Assay Setup: compound concentration: 200 uM; treatment time: 3 h
Value Kind: log2 ratio of Biotin-Ahx-Ub-VS probe labelling
Just the number, please.

Molecule: Cc1ccc(-c2nnc(C)[nH]2)c(NC(=O)CCl)c1
Observed Result: -0.237

Molecule: O=C(CCl)NC1CCN(C(=O)C2CCCCC2)CC1
Observed Result: -0.0926

Molecule: O=C(O)C1Cc2ccccc2CN1C(=O)CCl (configuration not stated)
Observed Result: -0.562

Molecule: COc1ccc(-c2csc(NC(=O)CCl)n2)cc1
Observed Result: -0.997

Molecule: O=C(CCl)Nc1cc2c(cc1Cl)OCCO2
Observed Result: -0.173

Molecule: O=C(CCl)N1CCOC2(CCC2)C1
Observed Result: -0.148

// switching to the query molecule
Form field log2 ratio of Biotin-Ahx-Ub-VS probe labelling, entry CC(NC(=O)CCl)c1noc(Cc2ccccc2)n1 (configuration not stated) : -0.271

----------
# Tested System: VCPIP1 (UniProt Q96JH7)
# Sequence (Q96JH7 whole entry, the tested form may be a part): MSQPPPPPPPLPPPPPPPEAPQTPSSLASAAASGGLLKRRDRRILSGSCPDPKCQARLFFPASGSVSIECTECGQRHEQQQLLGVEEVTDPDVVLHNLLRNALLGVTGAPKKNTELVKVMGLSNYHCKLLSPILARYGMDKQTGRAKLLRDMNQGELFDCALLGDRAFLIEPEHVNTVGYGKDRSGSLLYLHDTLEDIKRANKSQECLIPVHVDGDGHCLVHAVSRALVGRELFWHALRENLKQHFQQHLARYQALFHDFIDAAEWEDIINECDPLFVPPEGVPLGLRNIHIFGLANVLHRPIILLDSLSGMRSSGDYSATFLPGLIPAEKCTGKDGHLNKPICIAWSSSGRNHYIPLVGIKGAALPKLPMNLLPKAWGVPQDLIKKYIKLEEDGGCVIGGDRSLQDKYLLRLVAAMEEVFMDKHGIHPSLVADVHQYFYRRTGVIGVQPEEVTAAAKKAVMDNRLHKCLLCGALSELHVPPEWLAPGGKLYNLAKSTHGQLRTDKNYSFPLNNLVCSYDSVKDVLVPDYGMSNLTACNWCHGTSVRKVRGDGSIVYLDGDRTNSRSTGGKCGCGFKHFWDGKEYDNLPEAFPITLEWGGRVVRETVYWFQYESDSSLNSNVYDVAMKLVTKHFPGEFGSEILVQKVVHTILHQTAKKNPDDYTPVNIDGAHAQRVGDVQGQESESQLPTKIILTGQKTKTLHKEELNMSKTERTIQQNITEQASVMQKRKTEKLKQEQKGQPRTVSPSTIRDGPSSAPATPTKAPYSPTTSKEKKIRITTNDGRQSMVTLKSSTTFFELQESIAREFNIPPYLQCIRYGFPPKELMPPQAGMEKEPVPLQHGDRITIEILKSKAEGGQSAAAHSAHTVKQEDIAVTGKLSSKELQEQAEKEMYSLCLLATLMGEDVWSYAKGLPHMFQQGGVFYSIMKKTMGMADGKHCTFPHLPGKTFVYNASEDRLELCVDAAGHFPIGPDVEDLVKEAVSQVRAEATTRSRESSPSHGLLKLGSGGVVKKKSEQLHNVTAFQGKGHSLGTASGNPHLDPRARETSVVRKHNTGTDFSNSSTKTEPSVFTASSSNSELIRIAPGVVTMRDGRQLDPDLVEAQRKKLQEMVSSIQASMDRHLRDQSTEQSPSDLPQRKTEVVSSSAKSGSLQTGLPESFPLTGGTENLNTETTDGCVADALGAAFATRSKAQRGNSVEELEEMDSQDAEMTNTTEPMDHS
# Test Details: log2 ratio of Biotin-Ahx-Ub-VS probe labelling (fragment/DMSO); higher = less target engagement (more negative = stronger competition), active = hit call of the paper (q ≤ 0.05, log2 ratio ≤ -1)
# Assay Setup: compound concentration: 200 uM; treatment time: 3 h
Hi! Could you answer with just one of these? active, inactive

Compound: COc1ccc(C2CCCN2C(=O)CCl)c(OC)c1 (configuration not stated)
Assigned Category: inactive
--
Compound: Cc1ccc(C)c(NC(=O)CCl)c1
Assigned Category: active
--
Compound: Cc1ccc(CN(CCO)C(=O)CCl)cc1
Assigned Category: inactive
--
Compound: CN(C)S(=O)(=O)c1ccccc1CNC(=O)CCl
Assigned Category: active
--
Compound: O=C(CCl)NC1CCN(C(=O)C2CCCCC2)CC1
Assigned Category: inactive
--
Compound: O=C(CCl)N1CCOC2(CCC2)C1
Assigned Category: inactive

Kindly consider the entry below.
Per the assay record, what outcome was assigned to NC(=O)C(Cc1ccccc1)NC(=O)CCl (configuration not stated) ? inactive

----------
# Tested System: OTUD7B (UniProt Q6GQQ9)
# Sequence (Q6GQQ9 whole entry, the tested form may be a part): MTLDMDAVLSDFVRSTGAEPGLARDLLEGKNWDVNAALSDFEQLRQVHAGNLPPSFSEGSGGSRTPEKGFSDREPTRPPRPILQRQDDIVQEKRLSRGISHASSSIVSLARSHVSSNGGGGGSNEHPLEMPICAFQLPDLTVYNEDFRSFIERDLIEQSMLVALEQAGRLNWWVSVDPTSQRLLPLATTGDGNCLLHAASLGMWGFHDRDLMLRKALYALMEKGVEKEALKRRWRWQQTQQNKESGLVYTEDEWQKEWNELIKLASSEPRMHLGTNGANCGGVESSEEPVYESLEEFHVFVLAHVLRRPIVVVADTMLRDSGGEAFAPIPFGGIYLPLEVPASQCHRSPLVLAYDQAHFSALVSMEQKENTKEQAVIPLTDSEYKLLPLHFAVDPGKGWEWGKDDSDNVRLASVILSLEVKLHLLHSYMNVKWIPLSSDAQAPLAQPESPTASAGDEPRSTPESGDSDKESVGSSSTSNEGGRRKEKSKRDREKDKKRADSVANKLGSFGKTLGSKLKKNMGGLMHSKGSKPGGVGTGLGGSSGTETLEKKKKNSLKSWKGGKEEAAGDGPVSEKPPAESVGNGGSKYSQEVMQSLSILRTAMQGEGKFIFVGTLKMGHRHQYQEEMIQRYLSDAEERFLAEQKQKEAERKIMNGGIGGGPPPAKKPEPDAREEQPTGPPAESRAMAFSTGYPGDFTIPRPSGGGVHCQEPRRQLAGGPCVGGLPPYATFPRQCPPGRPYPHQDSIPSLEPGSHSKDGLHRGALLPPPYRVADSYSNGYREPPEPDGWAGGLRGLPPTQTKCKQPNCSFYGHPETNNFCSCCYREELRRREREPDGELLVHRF
# Test Details: log2 ratio of Biotin-Ahx-Ub-VS probe labelling (fragment/DMSO); higher = less target engagement (more negative = stronger competition), active = hit call of the paper (q ≤ 0.05, log2 ratio ≤ -1)
# Assay Setup: compound concentration: 200 uM; treatment time: 3 h
Your reply should match one of these outcome classes. active, inactive

See these solved cases before continuing.
Compound: O=C(CCl)N1CCC(O)(Cc2ccc(F)cc2)C1 (centres undefined)
Tested System: OTUD7B (UniProt Q6GQQ9)
Assigned Category: inactive
--
Compound: O=C(CCl)Nc1cc(Cl)ccc1-n1cncn1
Tested System: OTUD7B (UniProt Q6GQQ9)
Assigned Category: active
--
Compound: CN(CCc1ncc(Br)cn1)C(=O)CCl.Cl
Tested System: OTUD7B (UniProt Q6GQQ9)
Assigned Category: active
--
Compound: O=C(CCl)Nc1cc2c(cc1Cl)OCCO2
Tested System: OTUD7B (UniProt Q6GQQ9)
Assigned Category: inactive
--
Compound: CC(NC(=O)CCl)c1ccc2[nH]ncc2c1 (centres undefined)
Tested System: OTUD7B (UniProt Q6GQQ9)
Assigned Category: active

What classification did O=C(CCl)NCc1cccc(N2CCCC2=O)c1 end up with in this test? inactive

Hello, I am checking results. What call was entered for Cc1ccc(-c2nnc(C)[nH]2)c(NC(=O)CCl)c1 ? inactive

Identify the outcome logged in this assay for the compound shown: CS(=O)(=O)c1ccc(NC(=O)CCl)cc1 inactive

What outcome does the record of this test show for COc1cccc(CN(C)C(=O)CCl)c1 ? inactive

Given Cc1noc(C)c1CNC(=O)CCl , state the outcome it received in this test. active

In this assay, the call recorded for Cl.Cn1ncc2c1CCCC2NC(=O)CCl (centres undefined) was what? active

Per the records of this test, what outcome belongs to O=C(CCl)Nc1cccc(NC(=O)c2ccccc2)c1 ? inactive

What classification did O=C(CCl)N1CCC(c2ccn[nH]2)C1 (centres undefined) end up with in this test? inactive

In this assay, the call recorded for O=C(CCl)N[C@H]1CC[C@@H](CO)CC1 was what? active

----------
# Tested System: YOD1 (UniProt Q5VVQ6)
# Sequence (Q5VVQ6 whole entry, the tested form may be a part): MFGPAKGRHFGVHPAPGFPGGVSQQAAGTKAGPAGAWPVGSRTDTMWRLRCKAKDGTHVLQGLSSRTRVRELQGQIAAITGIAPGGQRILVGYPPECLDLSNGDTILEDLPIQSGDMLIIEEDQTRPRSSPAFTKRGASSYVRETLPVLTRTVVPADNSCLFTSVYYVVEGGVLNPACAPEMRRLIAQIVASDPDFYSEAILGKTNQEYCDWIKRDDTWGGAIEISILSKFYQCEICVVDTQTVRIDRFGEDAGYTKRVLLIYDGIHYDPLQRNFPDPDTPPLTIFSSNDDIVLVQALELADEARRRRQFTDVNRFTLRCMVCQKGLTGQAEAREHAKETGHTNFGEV
# Test Details: log2 ratio of Biotin-Ahx-Ub-VS probe labelling (fragment/DMSO); higher = less target engagement (more negative = stronger competition), active = hit call of the paper (q ≤ 0.05, log2 ratio ≤ -1)
# Assay Setup: compound concentration: 200 uM; treatment time: 3 h
A collection of compounds and their measured log2 ratio of Biotin-Ahx-Ub-VS probe labelling
Reply with just the number.

Recorded log2 ratio of Biotin-Ahx-Ub-VS probe labelling, per entry:
Compound: CC(NC(=O)CCl)c1csc(-c2ccccc2)n1.Cl (configuration not stated)
Observed Result: -0.459
--
Compound: CC(=O)C1CCCCN1C(=O)CCl (configuration not stated)
Observed Result: -0.0382

Lookup result for CCC(NC(=O)CCl)c1ccc(Cl)cc1 (configuration not stated) ; measured log2 ratio of Biotin-Ahx-Ub-VS probe labelling: 0.188

log2 ratio of Biotin-Ahx-Ub-VS probe labelling recorded for this compound, N#Cc1cnn(-c2ccccc2)c1NC(=O)CCl , is -0.327

Documented log2 ratio of Biotin-Ahx-Ub-VS probe labelling of O=C(CCl)Nc1ccc(Cl)c(F)c1 : -0.313

In plain terms, NC(=O)C(Cc1ccccc1)NC(=O)CCl (configuration not stated) has a documented log2 ratio of Biotin-Ahx-Ub-VS probe labelling of 0.0228

Record Cc1ccc(CN(C)C(=O)CCl)o1 . Reported log2 ratio of Biotin-Ahx-Ub-VS probe labelling: 0.384
